The reported numbers originate from paper PMC3407795.

# assay-overview: Biodistribution in HEK293-hsst3+ tumor-bearing mice
# Format: in vivo
# condition-label: mouse, kidneys, iv, 10 pmol, total radioactivity; HEK293-hsst3+ tumor SCID mice, 4 h pi; mean ± SD; read-out: Kidneys uptake

compound	tissue uptake at 4 h [%ID/g]
C[C@H](NC(=O)CN1CCN(CC(=O)O)CCN(CC(=O)O)CCN(CC(=O)O)CC1)C(=O)NCC(=O)N[C@H]1CSSC[C@@H](C(=O)O)NC(=O)[C@H](CO)NC(=O)[C@H]([C@@H](C)O)NC(=O)[C@H](Cc2ccccc2)NC(=O)[C@H]([C@@H](C)O)NC(=O)[C@H](CCCCN)NC(=O)[C@@H](Cc2c[nH]c3ccccc23)NC(=O)[C@H](Cc2ccccc2)NC(=O)[C@H](Cc2ccccc2)NC(=O)[C@H](CC(N)=O)NC(=O)[C@H](CCCCN)NC1=O [[^111In]AT2S, metal not drawn]	23.4
